Target: recombinant human nicotinic acid receptor (NAR) (Homo sapiens)
Experiment: Nicotinic Acid Receptor Assay: inhibition of forskolin-stimulated cAMP accumulation in CHO cells (MesoScale Discovery cAMP kit)
Type: cell-based
Conditions: NA EC50 camp (nM), CHO cells expressing recombinant human NAR; forskolin-stimulated cAMP
quantity: EC50

>>> print(df.to_string())
                                   compound  quantity   endpoint_value
0  C#CCOc1nc2oc(=O)cc(CC)c2c(=O)[nH]1 [Compound 555]      EC50   100 to 1000 nM
1  CCc1cc(=O)oc2nc(OCC#CCCCO)[nH]c(=O)c12 [Compound 645]      EC50  0.001 to 100 nM
2  CC#CCCOc1nc2oc(=O)cc(CC)c2c(=O)[nH]1 [Compound 590]      EC50   100 to 1000 nM
3  CCc1cc(=O)oc2nc(OCC#CC3CCCCC3)[nH]c(=O)c12 [Compound 638]      EC50   100 to 1000 nM
4  CCc1noc(CC)c1COc1nc2oc(=O)cc(CC)c2c(=O)[nH]1 [Compound 667]      EC50   100 to 1000 nM
5  CCc1cc(=O)oc2nc(OCc3ccccc3-c3cccc(C#N)c3)[nH]c(=O)c12 [Compound 509]      EC50   100 to 1000 nM
6  CCc1cc(=O)oc2nc(OCc3ccc(-c4cncnc4)cc3F)[nH]c(=O)c12 [Compound 575]      EC50   100 to 1000 nM
7  CCc1cc(=O)oc2nc(OCC#CC3CC3)[nH]c(=O)c12 [Compound 589]      EC50  0.001 to 100 nM
8  CCC#CCOc1nc2oc(=O)cc(CC)c2c(=O)[nH]1 [Compound 512]      EC50  0.001 to 100 nM

* * *

As shown below, each of these molecules has a reported pEC50 value.
Target: recombinant human nicotinic acid receptor (NAR) (Homo sapiens)
Experiment: Nicotinic Acid Receptor Assay: inhibition of forskolin-stimulated cAMP accumulation in CHO cells (MesoScale Discovery cAMP kit)
Assay type: cell-based
Conditions: CHO cells expressing recombinant human NAR; forskolin-stimulated cAMP; read-out: NA EC50 camp
pEC50: −log10 of the molar value.
quantity: pEC50

>>> df
                                    molecule  endpoint_value
 0  CCc1cc(=O)oc2nc(OCCN3CCCC3=O)[nH]c(=O)c12    6.00 to 7.00
 1    CC#CCCc1cc(=O)oc2[nH]c(=O)[nH]c(=O)c12          < 6.00
 2  O=c1[nH]c(=O)c2c(CCCOC3CCCC3)cc(=O)oc2[nH]1    6.00 to 7.00
 3  CC(=O)NCCCc1cc(=O)oc2[nH]c(=O)[nH]c(=O)c12          < 6.00
 4     CCc1cc(=O)oc2nc(OCC#CCOC)[nH]c(=O)c12    6.00 to 7.00
 5  CCc1cc(=O)oc2nc(OCc3ncccc3C)[nH]c(=O)c12          < 6.00
 6  CCc1noc(C)c1COc1nc2oc(=O)cc(Cc3cccc(F)c3)c2c(=O)[nH]1    6.00 to 7.00
 7      C=COCCOc1nc2oc(=O)cc(CC)c2c(=O)[nH]1          < 6.00
 8  O=c1cc(CCCc2cccs2)c2c(=O)n(CC3CC3)c(=O)[nH]c2o1          < 6.00
 9  CCc1cc(=O)oc2nc(OC(C)c3ccc(-c4ccccc4)cc3F)[nH]c(=O)c12 (centres unmarked)   7.00 to 12.00
10  O=C(OCc1ccccc1)N1CCC(CCc2cc(=O)oc3[nH]c(=O)[nH]c(=O)c23)CC1          < 6.00

* * *

As shown below, each of these compounds has a reported pEC50 value.
Molecular target: recombinant human nicotinic acid receptor (NAR) (Homo sapiens, UniProt Q8TDS4)
Sequence (Q8TDS4 whole entry): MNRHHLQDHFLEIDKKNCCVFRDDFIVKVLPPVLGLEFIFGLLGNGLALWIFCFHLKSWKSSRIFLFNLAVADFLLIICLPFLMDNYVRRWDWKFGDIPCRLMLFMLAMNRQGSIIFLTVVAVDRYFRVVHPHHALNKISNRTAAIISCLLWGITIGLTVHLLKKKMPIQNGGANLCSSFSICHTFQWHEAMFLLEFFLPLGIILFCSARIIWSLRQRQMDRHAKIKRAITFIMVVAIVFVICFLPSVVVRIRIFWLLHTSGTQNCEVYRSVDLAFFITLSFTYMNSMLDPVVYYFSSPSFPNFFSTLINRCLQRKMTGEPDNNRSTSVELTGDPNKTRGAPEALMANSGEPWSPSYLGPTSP
Experiment: Nicotinic Acid Receptor Assay: inhibition of forskolin-stimulated cAMP accumulation in CHO cells (MesoScale Discovery cAMP kit)
Format: cell-based
Conditions: CHO cells expressing recombinant human NAR; forskolin-stimulated cAMP; read-out: NA EC50 camp
pEC50: −log10 of the molar value.
quantity: pEC50

In [3]: df
Out[3]:
                                    compound  endpoint_value
 0  CCc1cc(=O)oc2nc(OCc3cccc(OC)n3)[nH]c(=O)c12 [Compound 544]    6.00 to 7.00
 1  CCc1cc(=O)oc2nc(OCCOC3CCCC3)[nH]c(=O)c12 [Compound 606]          < 6.00
 2  CCCCc1cc(=O)oc2nc(OCC#CC(O)CC)[nH]c(=O)c12 (centres unmarked) [Compound 679]   7.00 to 12.00
 3  CCOC(=O)c1cccc(-c2ccccc2COc2nc3oc(=O)cc(CC)c3c(=O)[nH]2)c1 [Compound 547]    6.00 to 7.00
 4  CCc1cc(=O)oc2nc(OCc3ccc(-n4cccn4)cc3)[nH]c(=O)c12 [Compound 624]    6.00 to 7.00
 5  CCc1cc(=O)oc2nc(OCCOc3cc(C(F)(F)F)ccn3)[nH]c(=O)c12 [Compound 602]    6.00 to 7.00
 6  CCc1cc(=O)oc2nc(OCCOC(C)C)[nH]c(=O)c12 [Compound 595]    6.00 to 7.00
 7  CCc1cc(=O)oc2nc(OCC3=Cc4ccccc4S3(=O)=O)[nH]c(=O)c12 [Compound 604]    6.00 to 7.00
 8  O=c1[nH]c(=O)c2c(CCCOCc3ccccc3)cc(=O)oc2[nH]1 [Compound 264]          < 6.00
 9  CCc1cc(=O)oc2nc(OC[C@H](O)c3ccccc3)[nH]c(=O)c12 [Compound 633]    6.00 to 7.00
10  CCc1cc(=O)oc2nc(OCc3cc(C)nn3C)[nH]c(=O)c12 [Compound 529]    6.00 to 7.00
11  CCCCc1c(-c2ccccc2)c(=O)oc2[nH]c(=O)[nH]c(=O)c12 [Compound 292]    6.00 to 7.00
12  CCCCc1c(-c2cccc(OC)c2)c(=O)oc2[nH]c(=O)[nH]c(=O)c12 [Compound 707]          < 6.00
13  N#Cc1ccc(-c2c(CCC3CCC3)c3c(=O)[nH]c(=O)[nH]c3oc2=O)cc1 [Compound 702]          < 6.00
14  CCc1cc(=O)oc2nc(OCc3cccc(-c4ccc(OC)nc4)c3)[nH]c(=O)c12 [Compound 562]    6.00 to 7.00
15  CCC(C)(C)Cc1cc(=O)oc2[nH]c(=O)[nH]c(=O)c12 [Compound 204]          < 6.00
16  CCn1c(=O)[nH]c2oc(=O)cc(C)c2c1=O [Compound 289]          < 6.00
17  CCc1cc(=O)oc2nc(OCc3ccc(-c4cccc(OC)c4)cc3F)[nH]c(=O)c12 [Compound 572]    6.00 to 7.00
18  CCc1cc(=O)oc2nc(OCCOc3ccccc3)[nH]c(=O)c12 [Compound 525]    6.00 to 7.00
19  CCc1cc(=O)oc2nc(OCc3cccc(-c4ccccc4)n3)[nH]c(=O)c12 [Compound 520]          < 6.00
20  CCc1c(-c2ccccc2)c(=O)oc2[nH]c(=O)n(C3CCC3)c(=O)c12 [Compound 203]          < 6.00
21  CCc1cc(=O)oc2nc(OC[C@H](C)OC)[nH]c(=O)c12 [Compound 632]    6.00 to 7.00
22  CCCCc1cc(=O)oc2nc(OCCOC)[nH]c(=O)c12 [Compound 660]          < 6.00
23  O=c1[nH]c(=O)c2c(CCCc3cc(-c4cccc(C(F)(F)F)c4)no3)cc(=O)oc2[nH]1 [Compound 249]    6.00 to 7.00
24  CSCCCc1cc(=O)oc2[nH]c(=O)[nH]c(=O)c12 [Compound 225]   7.00 to 12.00
25  N#CC1(CCCc2cc(=O)oc3[nH]c(=O)[nH]c(=O)c23)CC1 [Compound 294]    6.00 to 7.00
26  CCc1cc(=O)oc2nc(OCC(C)(O)c3ccccc3)[nH]c(=O)c12 (centres unmarked) [Compound 599]    6.00 to 7.00
27  CCc1cc(=O)oc2nc(OCc3ccccc3-c3ccc(CO)cc3)[nH]c(=O)c12 [Compound 548]    6.00 to 7.00
28  CCc1cc(=O)oc2nc(OC[C@@H](OC)c3ccccc3)[nH]c(=O)c12 [Compound 618]    6.00 to 7.00
29  CCc1cc(=O)oc2nc(OCCOc3c(OC)cccc3OC)[nH]c(=O)c12 [Compound 622]    6.00 to 7.00
30  CCc1cc(=O)oc2nc(OCc3cccc(-c4ccc(F)c(Cl)c4)c3)[nH]c(=O)c12 [Compound 558]          < 6.00
31  CCc1cc(=O)oc2nc(OCc3ccc(-n4cncn4)cc3)[nH]c(=O)c12 [Compound 628]          < 6.00
32  O=c1[nH]c(=O)c2c(CCC3CCC3)c(-c3ccc(C(F)(F)F)cc3)c(=O)oc2[nH]1 [Compound 701]          < 6.00
33  CCc1cc(=O)oc2nc(OCC3CCCCN3C)[nH]c(=O)c12 (centres unmarked) [Compound 594]          < 6.00
34  CCc1cc(=O)oc2nc(OCC(=O)c3ccccc3)[nH]c(=O)c12 [Compound 603]    6.00 to 7.00
